B1: C10orf62 (parent)
chain: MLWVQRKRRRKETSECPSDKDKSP

Variants of: B1
Assay: protein stability index of a GFP-peptide fusion (GPS, HEK-293T) (PSI 1-6); higher = more stable;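 note: lentivirally expressed fusions sorted by FACS into six bins by GFP to DsRed ratio, PSI derived from sequencing read proportions per bin multiplied by bin number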
Conditions: c terminus: a fixed tail appended
Items are presented alongside their recorded protein stability index.
Please reply with the value in numeric form only.

• R9V = 3.18

Next, consider the following variant.
Reported protein stability index, variant T13R : ____ 3.48
